- System: PXR homodimer (NR concentration 270 nM)
- method_description: PBM binding z-score (relative to random genomic background probes); higher = stronger binding; sequences stand for … in GC…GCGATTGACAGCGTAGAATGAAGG
assay_endpoint: PBM binding z-score

# annotated cases, reported PBM binding z-score shown
> print(dat)
                      record.sequence  meas.value
1  TAGCCTAGGTCATTCAGGGGCCAGTATCGAAAGC       0.344
2  GGAAGGAGGGCAAGTTGATAGCAGAGTTTGATGG         2.2
3  GCTGCTAGGTCAACTGATGGTCAGGTAAAGCTCG      -0.677
4  CCGGCTGGGGCATAAGGTTACCATAAGCCAGCCC      -0.484
5  TCTTGTCGATCAAGCAGGTTAAGAAAGCCTGAGT     -0.0537

query: Form field: PBM binding z-score recorded for ACTCGGAGGACAAAGGTCAGAGCTACGCCAGTGA with PXR homodimer (NR concentration 270 nM) (enter value)
result: 0.0188

query: Form field: PBM binding z-score recorded for AATACTGGGTCACTAGGCCAGAGTAGGTACGAAT with PXR homodimer (NR concentration 270 nM) (enter value)
result: 0.0229

====

sequences and their reported PBM binding z-score
- Test system: LXRa:RXRa (NR concentration 270 nM, RXRa partner concentration 90 nM)
- method_description: PBM binding z-score (relative to random genomic background probes); higher = stronger binding; sequences stand for … in GC…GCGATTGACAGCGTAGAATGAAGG
Keep the answer to the number alone.

> print(dat)
                      record.sequence                               measured.on       assay.endpoint  meas.value
1  ATCTCTAGGTAAAGATAGTGCAGTGAATGCAAAT  LXRa:RXRa (NR concentration 270 nM, RXRa partner concentration 90 nM)  PBM binding z-score        1.16
2  CCTACTGGGCCAAAAAGGTCTTTGATGCCGATAA  LXRa:RXRa (NR concentration 270 nM, RXRa partner concentration 90 nM)  PBM binding z-score      -0.556
3  ATCTCTAGGTAAGACTCAGTTCAGCGAAGAACGC  LXRa:RXRa (NR concentration 270 nM, RXRa partner concentration 90 nM)  PBM binding z-score       0.369
4  TAGAGTAGGTTAGTCGGGGCATTCAGCCAACATA  LXRa:RXRa (NR concentration 270 nM, RXRa partner concentration 90 nM)  PBM binding z-score       0.485
5  ATCGAGAGGTCGAAGGTGAGTATACCCACCCGAA  LXRa:RXRa (NR concentration 270 nM, RXRa partner concentration 90 nM)  PBM binding z-score        2.43

query: # query: PBM binding z-score of entry AGAATGAGGTTACCAAAGATCGGGGAAACGCTTG
result: 4.95

====

- System: PPARa:RXRa (NR concentration 270 nM, RXRa partner concentration 90 nM)
- method_description: PBM binding z-score (relative to random genomic background probes); higher = stronger binding; sequences stand for … in GC…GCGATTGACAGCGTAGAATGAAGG
Tick t if PBM binding z-score is 2 or greater. Tick f if PBM binding z-score is less than 2.

Solved entries (count: 3):
> print(dat)
                      record.sequence                               measured.on  category.label
1  CCGACTGGGGCAAGGTTAGCATAACGCACAGCCA  PPARa:RXRa (NR concentration 270 nM, RXRa partner concentration 90 nM)               f
2  CGTCCAAGGTCATCGGAGGTCAGTGAAGACAGAT  PPARa:RXRa (NR concentration 270 nM, RXRa partner concentration 90 nM)               t
3  TCTAGTTGGTCAACGGTCACACACTCGAAATGCG  PPARa:RXRa (NR concentration 270 nM, RXRa partner concentration 90 nM)               t

query: I'd appreciate it if you could say whether ACTAGCAGGCCAAGTTTGGGTCACTCATACAAAG has PBM binding z-score at least equal to 2.
result: f

query: I'd appreciate it if you could say whether TCTAGTTGCTCACGGAGGTCACACACGACGGGTA has PBM binding z-score at least equal to 2.
result: t

query: I'd appreciate it if you could say whether CCTACTGGGCCATCATGTCATTGATATCAACGTT has PBM binding z-score at least equal to 2.
result: f

The reported measurements were obtained from the supplement of paper PMC6555819.
